- ASSAY SYSTEM: Recombinant Human MMP-13 (Homo sapiens, UniProt P45452)
- Construct: purchased R&D systems 511-MM
- PROTOCOL DETAILS: MMP-13 inhibitory activity (MMP-13 specific fluorescent substrate with quencher)
- Format: biochemical
- TEST CONDITIONS: Recombinant Human MMP-13, fluorescent substrate, 25° C. for 1 h; read-out: IC50 MMP13 (Experimental Example 3)
pIC50: −log10 of the molar value.
Reported values of pIC50 for individual entries

COMPOUND	ASSAY SYSTEM	pIC50
CC1[C@H](c2ccccc2)[C@]1(NS(=O)(=O)N1CCN(C(=O)Nc2ccccc2)CC1)C(=O)O (stereo partly drawn) [Example 2-11]	Recombinant Human MMP-13 (Homo sapiens, UniProt P45452)	≤ 6.00
O=C(O)C1(NS(=O)(=O)c2ccc(-c3ccc(Cl)cc3)s2)CC1(CCCN1CCOCC1)c1ccccc1 (stereo not drawn) [Example 2-249]	Recombinant Human MMP-13 (Homo sapiens, UniProt P45452)	> 6.00
O=C(O)[C@]1(NS(=O)(=O)c2ccc(-c3cc(C(F)(F)F)no3)s2)C[C@@H]1c1ccccc1 [Example 2-171]	Recombinant Human MMP-13 (Homo sapiens, UniProt P45452)	> 6.00
CN1CCN(Cc2cccc(C3CC3(NS(=O)(=O)c3ccc(-c4ccc(Cl)cc4)s3)C(=O)O)c2)CC1 (stereo not drawn) [Example 1-103]	Recombinant Human MMP-13 (Homo sapiens, UniProt P45452)	> 6.00
O=C(O)C1(NS(=O)(=O)c2ccc(-c3ccc(OC(F)(F)F)cc3)s2)CC1c1ccccc1 (stereo not drawn) [Example 2-17]	Recombinant Human MMP-13 (Homo sapiens, UniProt P45452)	> 7.00
O=C(OCCCc1ccccc1C1CC1(NS(=O)(=O)c1ccc(-c2cc(C(F)(F)F)on2)s1)C(=O)O)N1CC[C@@H](O)C1 (stereo partly drawn) [Example 2-255]	Recombinant Human MMP-13 (Homo sapiens, UniProt P45452)	> 7.00
CN(C)c1cccc(C2CC2(NS(=O)(=O)c2ccc(-c3cc(C(F)(F)F)on3)s2)C(=O)O)c1 (stereo not drawn) [Example 2-228]	Recombinant Human MMP-13 (Homo sapiens, UniProt P45452)	> 6.00
CCCC#Cc1ccc(S(=O)(=O)N[C@@]2(C(=O)O)C[C@@H]2c2ccccc2)s1 [Example 2-133]	Recombinant Human MMP-13 (Homo sapiens, UniProt P45452)	> 6.00
CC1C(c2ccccc2)C1(NS(=O)(=O)c1ccc(-c2ccc(Cl)cc2)s1)C(=O)O (stereo not drawn) [Example 2-237]	Recombinant Human MMP-13 (Homo sapiens, UniProt P45452)	> 7.00
O=C(O)C1(NS(=O)(=O)c2ccc(-c3ccc(Cl)cc3)s2)CC1(CO)c1ccccc1 (stereo not drawn) [Example 2-229]	Recombinant Human MMP-13 (Homo sapiens, UniProt P45452)	> 6.00
O=C(Nc1cccc(C2CC2(NS(=O)(=O)c2ccc(-c3ccc(Cl)cc3)cc2)C(=O)O)c1)c1ccccn1 (stereo not drawn) [Example 1-62]	Recombinant Human MMP-13 (Homo sapiens, UniProt P45452)	> 7.00
COC(=O)Cc1cccc(C2CC2(NS(=O)(=O)c2ccc(-c3cc(C(F)(F)F)on3)s2)C(=O)O)c1 (stereo not drawn) [Example 2-219]	Recombinant Human MMP-13 (Homo sapiens, UniProt P45452)	> 7.00
CN1CCN(C(=O)Cc2cccc(C3CC3(NS(=O)(=O)c3ccc(-c4ccc(Cl)cc4)s3)C(=O)O)c2)CC1 (stereo not drawn) [Example 2-191]	Recombinant Human MMP-13 (Homo sapiens, UniProt P45452)	> 7.00
O=C(O)C1(NS(=O)(=O)c2ccc(-c3ccc(Cl)cc3)s2)CC1C1CCCCC1 (stereo not drawn) [Example 2-41]	Recombinant Human MMP-13 (Homo sapiens, UniProt P45452)	> 6.00
O=C(O)C1(NS(=O)(=O)c2ccc(-c3ccc(Cl)cc3)s2)CC1c1cccc(OCCN2CCOCC2)c1 (stereo not drawn) [Example 2-197]	Recombinant Human MMP-13 (Homo sapiens, UniProt P45452)	> 6.00

* * *

- ASSAY SYSTEM: UniProtKB O75173
- Sequence (O75173 213-837): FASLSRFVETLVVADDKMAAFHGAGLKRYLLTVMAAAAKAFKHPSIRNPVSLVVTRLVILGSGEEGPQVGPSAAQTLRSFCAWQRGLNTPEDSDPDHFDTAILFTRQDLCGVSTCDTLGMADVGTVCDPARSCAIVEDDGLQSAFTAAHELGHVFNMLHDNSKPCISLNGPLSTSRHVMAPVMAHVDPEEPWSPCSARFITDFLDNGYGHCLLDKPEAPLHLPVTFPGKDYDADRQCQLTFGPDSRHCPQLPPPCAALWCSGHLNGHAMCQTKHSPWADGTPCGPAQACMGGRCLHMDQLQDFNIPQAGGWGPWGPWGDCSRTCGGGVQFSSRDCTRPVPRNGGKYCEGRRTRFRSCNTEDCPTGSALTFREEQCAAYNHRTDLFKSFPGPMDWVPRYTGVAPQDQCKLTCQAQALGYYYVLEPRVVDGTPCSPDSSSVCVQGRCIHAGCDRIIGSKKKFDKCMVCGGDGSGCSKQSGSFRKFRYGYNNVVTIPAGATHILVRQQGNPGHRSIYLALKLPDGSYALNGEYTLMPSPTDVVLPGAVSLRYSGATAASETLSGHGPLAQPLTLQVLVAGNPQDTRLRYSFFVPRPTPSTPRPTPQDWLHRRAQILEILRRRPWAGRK
- PROTOCOL DETAILS: Aggrecanase-1 inhibitory action (Particle Assay, GAG release from aggrecan-containing polyacrylamide particles)
- Format: biochemical
- TEST CONDITIONS: aggrecanase-1 inhibitory action; read-out: IC50 AG1 (Experimental Example 1)

MOLECULE	IC50
O=C(O)[C@]1(NS(=O)(=O)c2ccc(-c3cc4ccccc4s3)s2)C[C@@H]1c1ccccc1 [Example 2-113]	< 100 nM
O=C(O)C1(NS(=O)(=O)c2ccc(-c3ccc(Cl)cc3)s2)CC1c1cccc(NCc2cccnc2)c1 (stereo not shown) [Example 1-129]	< 100 nM
CC(C)NC(=O)c1ccc(S(=O)(=O)NC2(C(=O)O)CC2c2ccccc2)s1 (stereo not shown) [Example 2-94]	≥ 10000 nM
O=C(O)[C@]1(NS(=O)(=O)c2ccc(-c3cc(C(F)(F)F)on3)s2)[C@H](CO)[C@@H]1c1ccccc1 (relative stereo) [Example 2-10]	< 100 nM
O=C(COc1ccccc1C1CC1(NS(=O)(=O)c1ccc(-c2ccc(Cl)cc2)s1)C(=O)O)N1CCOCC1 (stereo not shown) [Example 1-146]	< 100 nM
CN1CC=C(c2ccc(S(=O)(=O)N[C@@]3(C(=O)O)C[C@@H]3c3ccccc3)s2)CC1 [Example 2-172]	≥ 10000 nM
CC(C)(CO)NC(=O)c1ccccc1C1CC1(NS(=O)(=O)c1ccc(-c2ccc(Cl)cc2)s1)C(=O)O (stereo not shown) [Example 2-78]	< 100 nM

* * *

- ASSAY SYSTEM: UniProt:O75173
- PROTOCOL DETAILS: Aggrecanase-1 inhibitory action (Particle Assay, GAG release from aggrecan-containing polyacrylamide particles)
- Assay type: biochemical
- TEST CONDITIONS: aggrecanase-1 inhibitory action; read-out: IC50 AG1 (Experimental Example 1)
- Experimental: Particle Assay was used for determination of aggrecanase activity. The enzyme and substrate were diluted with Tris-HCl buffer, and test compounds were diluted with dimethyl sulfoxide (DMSO). […] After incubation, the supernatant was transferred to another plate, and mixed with 1,9-dimethylmethylene blue. The absorbence at 595 nm was measured to quantify the amount of glycosaminoglycan (GAG) released in the reaction supernatant. […]
READOUT NAME: IC50

COMPOUND	READOUT NAME	TEST VALUE
O=C(O)C1(NS(=O)(=O)c2ccc(-c3ccc(Cl)cc3)cc2)CC1c1ccc(Oc2ccccc2)cc1 (stereo not shown) [Example 1-16]	IC50	< 1000 nM
CC(C)(C)C1CC1(NS(=O)(=O)c1ccc(-c2ccc(Cl)cc2)s1)C(=O)O (stereo not shown) [Example 2-62]	IC50	< 1000 nM
O=C(O)C1(NS(=O)(=O)c2ccc(S(=O)(=O)c3ccccc3)s2)CC1c1ccccc1 (stereo not shown) [Example 2-81]	IC50	≥ 10000 nM
O=C(O)C1(NS(=O)(=O)c2ccc(-c3ccc(Br)cc3)cc2)CC1c1ccccc1 (stereo not shown) [Example 1-31]	IC50	< 1000 nM

* * *

Reported values of pIC50 for individual entries
- ASSAY SYSTEM: Recombinant Human MMP-13 (Homo sapiens, UniProt P45452)
- Construct: purchased R&D systems 511-MM
- PROTOCOL DETAILS: MMP-13 inhibitory activity (MMP-13 specific fluorescent substrate with quencher)
- Type: biochemical
- TEST CONDITIONS: Recombinant Human MMP-13, fluorescent substrate, 25° C. for 1 h; read-out: IC50 MMP13 (Experimental Example 3)
pIC50: −log10 of the molar value.

COMPOUND	pIC50
O=C(NCCO)c1cccc(C2CC2(NS(=O)(=O)c2ccc(-c3ccc(Cl)cc3)s2)C(=O)O)c1 (stereo not shown)	> 6.00
O=C(O)C1(NS(=O)(=O)c2cccs2)CC1c1ccccc1 (stereo not shown)	≤ 5.00
CCC1(c2ccccc2)CC1(NS(=O)(=O)c1ccc(-c2ccc(Cl)cc2)s1)C(=O)O (stereo not shown)	> 6.00
O=C(Nc1ccccc1)c1ccc(S(=O)(=O)NC2(C(=O)O)CC2c2ccccc2)s1 (stereo not shown)	> 6.00
